Target: Toxoplasma gondii RH tachyzoites
Experiment: EC50 growth inhibition (48 h luciferase)
# key: entry, value: EC50 growth inhibition
State the answer as a number, implicitly in µM.

Please review the entries below; each comes with its answer.
compound="O=C(NC(c1ccccc1)c1ccc2cccnc2c1O)c1ccccc1 (stereo unspecified)" measured=0.77
compound=CN1CCN(c2ccc(Nc3c4ccccc4nc4ccccc34)cc2)CC1 measured=2.32
compound="Cc1ccnc(NC(c2cccc(OCc3ccccc3)c2)c2ccc3cccnc3c2O)c1 (stereo unspecified)" measured=0.786
compound=O=C(NCCCN1CCC(N2CCCCC2)CC1)C1=Cc2cc(Br)ccc2OC1 measured=2.69

Enquiry: Look up EC50 growth inhibition for this compound: Oc1ccc(Br)cc1CN1CCN(Cc2ccc(Cl)cc2)CC1
Return: 6.61

Enquiry: Next compound: N=c1n(CCN2CCCCC2)c2ccccc2n1CC(O)c1cccc(Br)c1 (stereo unspecified)
Return: 4.58

Enquiry: Now try N=c1n(CCN2CCCCC2)c2ccccc2n1CC(=O)c1ccc(Cl)c(Cl)c1 .
Return: 1.82

Enquiry: Follow-up item: O=C(Cc1ccccc1)NC(c1ccc(Cl)cc1)c1c(O)ccc2ccccc12 (stereo unspecified)
Return: 1.02

Enquiry: Please answer likewise for CCCCNCC(O)(c1ccc(Cl)cc1)c1ccc(Cl)cc1
Return: 6.55

Enquiry: Try the compound CCOc1ccc(-c2nonc2NC(=O)c2cccc(C)c2)cc1OCC
Return: 1.62

Enquiry: Quick one: Cc1ccc(Cl)cc1N1CCN(CCCNC(=O)C2CCN(c3nc4ccccc4[nH]3)CC2)CC1
Return: 3.25

---

System: Toxoplasma gondii RH tachyzoites
Assay: median egress time after A23187 ionophore; higher = stronger egress inhibition
Details: 10 µM; pretreatment time: 24 h
READOUT_TYPE: median egress time (min)
Numbers only; they are read as min.

Enquiry: Missing value: median egress time, Toxoplasma gondii RH tachyzoites, entry O=C(NC1CCN(Cc2ccccc2)CC1)c1cc(-c2cccnc2)nc2ccc(Cl)cc12 . Fill in?
Return: 2.67

Enquiry: What about this molecule? CCOc1cc2c(cc1OCC)C(c1cc(OC)c(O)cc1Cl)NCC2 (configuration not stated)
Return: 2.27

Enquiry: Also CC(=O)Nc1nnc(SCc2c(C)cc(C(C)(C)C)cc2C)s1 , if possible.
Return: 2.4

Enquiry: Same thing, different molecule: COc1cccc(NC(=O)[C@H](C(C)C)n2c(=O)[nH]c3ccccc3c2=O)c1
Return: 2.67

Enquiry: Please give the result for CC(=O)NCCc1nc2ccccc2n1Cc1ccc(C(C)C)cc1 too.
Return: 5.47

Enquiry: Same lookup for O=C(NC1CCCCC1)C(c1cccs1)N(CCc1ccccc1)C(=O)c1ccco1 (configuration not stated) , please.
Return: 2.06

Enquiry: Entry OC(CNC1CCCCC1)Cn1c2ccc(I)cc2c2cc(I)ccc21 (configuration not stated) please
Return: 1.33

---

Biological target: Toxoplasma gondii RH tachyzoites
Test: EC50 growth inhibition (48 h luciferase)
READOUT_TYPE: EC50 growth inhibition
Entry format: amount then unit.

# annotated cases, reported EC50 growth inhibition shown
compound="CCCCCn1c(=N)n(CC(O)COc2cccc(C)c2)c2ccccc21 (stereo not given)" tested_system="Toxoplasma gondii RH tachyzoites" measured="1770 nM"
compound=O=C(Nc1cccc(C(F)(F)F)c1)c1cc(Cl)ccc1O tested_system="Toxoplasma gondii RH tachyzoites" measured="9.2 nM"
compound=COc1ccc(-c2nc3cc(Cc4ccc5[nH]c(-c6ccc(OC)cc6)nc5c4)ccc3[nH]2)cc1 tested_system="Toxoplasma gondii RH tachyzoites" measured="1470 nM"

Enquiry: Consider the compound shown here: FC(F)(F)c1ccc(Nc2nnnc3ccccc23)cc1 What is its recorded EC50 growth inhibition?
Return: 681 nM

Enquiry: Also, O=C(Nc1ccc(Cl)c(Cl)c1)Nc1ccc(Cl)c(Cl)c1 please.
Return: 196 nM

Enquiry: Next compound: CCOC(=O)C1=C(c2ccccc2)N=c2sc(=Cc3cc(C)n(-c4ccc(F)cc4)c3C)c(=O)n2C1c1cccc(OC)c1OC (stereo not given)
Return: 1500 nM

Enquiry: Same thing, different compound: CCOC(=O)c1cnc2ccc(OC)cc2c1NCc1ccccc1
Return: 1400 nM

Enquiry: Now this one: CCCCCCc1cc(O)c2c3c(c(=O)oc2c1)CCC(C)C3 (stereo not given)
Return: 471 nM

Enquiry: What do we get for FC(F)(F)c1cccc(Nc2nc3ccccc3nc2Nc2cccc(C(F)(F)F)c2)c1 ?
Return: 46.4 nM

Enquiry: How about Cc1ccc(C2CC(C(F)(F)F)n3nc(C(=O)N4CCN(C(c5ccccc5)c5ccccc5)CC4)cc3N2)cc1 (stereo not given) ?
Return: 1660 nM

---

System: Toxoplasma gondii RH tachyzoites
Experiment: plaque count per well; higher = less inhibition; extreme values may be limits of the assay
Details: 10 µM; 8-10 days
READOUT_TYPE: plaque count per well
Simply state the number, no unit and no words.

compound=Oc1ccc(-c2nc(-c3ccc4oc5ccc(-c6[nH]c(-c7ccc(O)cc7)nc6-c6ccccc6)cc5c4c3)c(-c3ccccc3)[nH]2)cc1 measured=11
compound="COc1ccc(NC(=O)C2c3ccccc3C(=O)N(CC(C)C)C2c2cccs2)cc1Cl (stereo not given)" measured=28
compound=CCCCCCc1cc2cc(-c3csc(C=Cc4ccccc4)n3)c(=O)oc2cc1O measured=16
compound=COc1nc(Nc2ccc(C(C)C)cc2)nc(OC)n1 measured=30
compound=O=C(CSc1ccc2nnc(-c3cccc(F)c3)n2n1)Nc1ccc2c(c1)OCO2 measured=25
compound=O=C(Nc1ccc(CN2CCOCC2)cc1)c1ccc(-c2ccc(Br)cc2)o1 measured=30

Enquiry: Recorded plaque count per well for Cc1cc(NC(=O)C2c3ccccc3C(=O)N(CC(C)C)C2c2cccs2)no1 (stereo not given) , please?
Return: 29

Enquiry: Likewise for COc1ccc(Br)cc1C1Nc2ccc3ccccc3c2C2=C1C(=O)CC(c1ccccc1)C2 (stereo not given) ?
Return: 0

Enquiry: Then this compound: COc1ccc(-c2cc3c(nn2)-c2ccccc2C3=O)cc1
Return: 29

Enquiry: // repeat for CCOC(=O)C1=C(C)N=c2sc(=Cc3ccccc3O)c(=O)n2C1c1ccc(OC)c2ccccc12 (stereo not given) and report
Return: 18

---

System: Toxoplasma gondii RH tachyzoites
Assay: % growth inhibition vs DMSO (48 h luciferase); higher = more inhibition
Details: 10 µM
READOUT_TYPE: % growth inhibition (%)
Report the value in % with no unit label.

Illustrative cases are given below, each with its answer.
compound=CCOc1c(Br)cc(C2C(C(=O)OC)=CN(C)C=C2C(=O)OC)cc1OC measured=70.4
compound="O=C(NCC(c1ccsc1)N1CCCCCC1)c1ccc(C(F)(F)F)cc1 (stereo unspecified)" measured=11
compound="COc1ccc(Br)cc1C1Nc2ccc3ccccc3c2C2=C1C(=O)CC(c1ccccc1)C2 (stereo unspecified)" measured=12.1
compound="CC(C)(C)CC(C)(C)NCC(O)COc1ccc2c(c1)CCC2 (stereo unspecified)" measured=61.6

Enquiry: Name the reported % growth inhibition value associated with the compound Cc1cc(Nc2ccc(OCc3ccccc3)cc2)nc2cc(O)ccc12
Return: 100

Enquiry: Let us now turn to CC1CC(C)CN(C(=O)c2ccc(Cl)cc2Cl)C1 (stereo unspecified)
Return: 31.6

Enquiry: c1ccc(-c2ccc(-c3nc4ccccc4[nH]3)cc2)cc1 ?
Return: 12.3

Enquiry: Field entry: COc1cccc(C2(C)Nc3ccccc3-c3nc4ccccc4n32)c1 (stereo unspecified)
Return: 12.6

Enquiry: Try Nc1ccc(-c2nc3cc(Cc4ccc5[nH]c(-c6ccc(N)cc6)nc5c4)ccc3[nH]2)cc1 next.
Return: 59.1

Enquiry: Another compound to check: O=C(NC1CCN(Cc2ccccc2)CC1)c1cc(-c2ccncc2)nc2ccc(Cl)cc12
Return: 54.7

Enquiry: Try this compound next: CCOc1ccc(-c2nonc2NC(=O)c2cccc(C)c2)cc1OCC
Return: 96.5

---

Item-by-item account of % growth inhibition
Test system: Toxoplasma gondii RH tachyzoites
Assay: % growth inhibition vs DMSO (48 h luciferase); higher = more inhibition
Conditions: 10 µM
Field format: number, assumed %, no unit text.

For orientation, consider the following solved cases.
compound=COc1ccc(Nc2nc(NCc3ccccc3)c3ccccc3n2)cc1 readout_type="% growth inhibition" unit_tag=% measured=101
compound=COc1ccc(-c2nc(N3CCN(C(=O)C4CCCCC4)CC3)c3c4c(sc3n2)CCCC4)cc1 readout_type="% growth inhibition" unit_tag=% measured=86
compound=O=C(CSc1ccc2nnc(-c3cccc(F)c3)n2n1)Nc1ccc2c(c1)OCO2 readout_type="% growth inhibition" unit_tag=% measured=15.9
compound=CCN(CC)CCNc1ncnc2c1[nH]c1ccc(Cl)cc12 readout_type="% growth inhibition" unit_tag=% measured=23.3
compound=Cn1c(C(=O)c2cccc3ccccc23)nc2ccccc21 readout_type="% growth inhibition" unit_tag=% measured=9.52
compound=COc1ccc(C2N(C)c3ccccc3N2C)cc1 readout_type="% growth inhibition" unit_tag=% measured=15.2
compound=O=C1c2ccc3c4c(ccc(c24)C(=O)N1CCCCO)C(=O)N(CCCCO)C3=O readout_type="% growth inhibition" unit_tag=% measured=99.5
compound=COc1cc(C(=O)Nc2ccc(-c3nc4ccccc4[nH]3)cc2)cc(OC)c1OC readout_type="% growth inhibition" unit_tag=% measured=91.4
compound="CC(Oc1ccc(NC(=O)c2cccs2)cc1)C(=O)c1ccc(Cl)cc1 (configuration not stated)" readout_type="% growth inhibition" unit_tag=% measured=98.1
compound=CCOC(=O)c1cnc2ccc(CC)cc2c1O readout_type="% growth inhibition" unit_tag=% measured=78.7

Enquiry: For the compound shown here, CC1CCN(Cc2c(O)ccc3cc(-c4nc5ccccc5s4)c(=O)oc23)CC1 , give the reported % growth inhibition.
Return: 18.7

Enquiry: Now this one: COc1ccc(CNC2CCN(c3ccc(NC(=O)c4cccc(Cl)c4)cc3)CC2)cc1OC
Return: 3.03

Enquiry: Note, next up: CCOC(=O)C1=C(C)N=c2sc(=Cc3ccccc3O)c(=O)n2C1c1ccc(OC)c2ccccc12 (configuration not stated)
Return: 4.31

Enquiry: Record: c1ccc(Cn2c(N=Nc3c(Nc4ccccc4)ccc4ccccc34)nc3ccccc32)cc1
Return: 29.1

Enquiry: Lookup CCOc1cccc2sc(N(Cc3cccnc3)C(=O)C3CCCCC3)nc12
Return: 29.9

Enquiry: Now the same for CCOC(=O)c1c(NC(=O)c2ccccc2)sc2c(O)c(CN(CC)CC)ccc12
Return: 65.8

Enquiry: Another compound to check: COC(=O)c1ccc(C2C3=C(O)CC(c4ccc(F)cc4)CC3=Nc3ccccc3N2C(=O)c2ccccc2)cc1 (configuration not stated)
Return: 61.3

Enquiry: Same for CCOc1ccc(C2N(C)c3ccccc3N2C)cc1
Return: 49.6

Enquiry: Thanks! And OC(CNCC1CCCO1)Cn1c2ccc(Cl)cc2c2cc(Cl)ccc21 (configuration not stated) ?
Return: 99.2

Enquiry: What about this compound? CCOc1ccc2c(c1)CN(Cc1ccc(Cl)cc1)CO2
Return: 24.6
